Would you kindly list half-lives t1/2 in human plasma (v/v) at 37°C for each of these molecules?
# assayName: Half-lives in pooled human plasma at 37°C
# Type: in vitro ADME
# cond: 100% plasma, [prodrug]0 =50 µM, 37°C
Marks after values point to notes of the source that are not given here.

Worked examples, 2 molecules total:
# smilesEntry, result
rows = [
    ("CN(C)CCc1cn(C(=O)OCc2ccccc2)c2cccc(O)c12", "> 5700 (100%) min"),
    ("CCN(C)CCc1c[nH]c2cccc(OCOC(=O)C(C)(C)C)c12", "> 240 (100%) min"),
]

Please supply half-lives t1/2 in human plasma (v/v) at 37°C for each of the following items, keeping them in order.
1. CCN(C)CCc1cn(C(=O)OCc2ccccc2)c2cccc(O)c12
2. CN(C)CCc1c[nH]c2cccc(OCOC(=O)C(C)(C)C)c12

> 5700 (100%) min
> 240 (100%)^b min

====

# assayName: Half-lives in pooled human plasma at 37°C
# Assay type: in vitro ADME
# cond: 10% pooled human plasma in PBS, pH 7.3; 37°C, 10% pooled human plasma diluted with PBS, 5·10^−5 M
assayMetric: half-life at 50 µM (min)
Answers are plain numbers, in min.

# smilesEntry, half-life at 50 µM [min]
records = [
    ("CCCC(=O)OCOc1cccc2[nH]cc(CCN(C)C)c12", 3.5),
]

Name the reported half-life at 50 µM value associated with the molecule CCCC(=O)OCOc1cccc2[nH]cc(CCN(C)CC)c12
4.2
